pKi: −log10 of the molar value.
Compiled pKi measurements on Carbonic anhydrase 7 (Homo sapiens, UniProt P43166) taken from the literature.
Sequence (P43166 whole entry): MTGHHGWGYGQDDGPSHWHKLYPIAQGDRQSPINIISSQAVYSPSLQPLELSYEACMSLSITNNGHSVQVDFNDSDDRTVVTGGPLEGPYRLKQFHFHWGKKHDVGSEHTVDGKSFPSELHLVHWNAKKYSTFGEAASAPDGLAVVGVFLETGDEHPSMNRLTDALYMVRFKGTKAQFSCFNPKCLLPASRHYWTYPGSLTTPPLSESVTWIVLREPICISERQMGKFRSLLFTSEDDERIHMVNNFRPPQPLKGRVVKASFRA
Quick rule: pKi of at least 7 means true (1), below that means false (0).

Solved cases (4 shown):
NS(=O)(=O)c1ccc(C(=O)Nc2ccc([Se][C@@H]3O[C@H](CO)[C@@H](O)[C@H](O)[C@H]3O)cc2)cc1	true (1)
CCCCNS(=O)(=O)NCCCC	false (0)
COc1cc2ccc(=O)oc2c(O[C@@H]2O[C@H](CO)[C@@H](O)[C@H](O)[C@H]2O)c1O	false (0)
O=C1NS(=O)(=O)c2ccccc21	true (1)

stdin: For this molecule, is measured pKi 7 or higher? COC(=O)[C@@H](NS(=O)(=O)NCc1ccc(F)cc1)C(C)C
stdout: true (1)

stdin: API: above_or_equal(metric=pKi, cutoff=7) for item COc1cc(C(=O)O)cc(OC)c1O
stdout: false (0)

stdin: In plain terms: is recorded pKi at least 7 for COc1ccc2oc(=O)c(C(=O)O)cc2c1 ?
stdout: false (0)

stdin: In plain terms: is recorded pKi at least 7 for O=C1Nc2c(C(=O)O)cccc2S(=O)(=O)N1 ?
stdout: false (0)

stdin: // inclusive: pKi at least 7? input: COc1ccc(N/N=C(\Cl)C(=O)Nc2ccc(S(N)(=O)=O)cc2)cc1
stdout: true (1)

stdin: Identify whether the reported pKi of the following molecule is 7 or greater: NS(=O)(=O)c1ccc(NC(=O)CN2C(=O)NC3(CCCC3)C2=O)cc1
stdout: true (1)

stdin: Kindly determine if pKi recorded for O=C(O)c1c(O)cccc1O is above or exactly 7.
stdout: false (0)

stdin: Textbook exercise: given the entry NS(=O)(=O)c1ccc(NC(=O)CN2C(=O)NC3(CCCCCC3)C2=O)cc1 , state whether its pKi is greater than or equal to 7.
stdout: true (1)

stdin: Please indicate if the recorded pKi for COC(=O)CCNS(=O)(=O)Oc1ccccc1O meets or exceeds 7.
stdout: false (0)

stdin: Determine whether this molecule has pKi no lower than 7: Cc1cn([C@H]2C[C@@H](n3cc(COc4ccc5oc(=O)ccc5c4)nn3)[C@@H](CO)O2)c(=O)[nH]c1=O
stdout: true (1)

stdin: Please indicate if the recorded pKi for NCCNCCN meets or exceeds 7.
stdout: false (0)

stdin: // inclusive: pKi at least 7? input: COC(=O)c1ccc(O)cc1
stdout: false (0)
